experimental_protocol: AUC (0 to infinity) in male Sprague-Dawley rat at 1 mg/kg, iv measured upto 24 hrs by triple quadrupole mass spectrometric analysis
Type: ADME, organism-based
test_settings: in vivo
measurement_name: AUC(0-inf) (ng·h/mL)

1) CC(=O)N1CCN(CCOc2cc(=O)oc3ccccc23)CC1 : 1020

---

experimental_protocol: AUC (0 to t) in male Sprague-Dawley rat at 1 mg/kg, iv measured upto 24 hrs by triple quadrupole mass spectrometric analysis
Type: ADME, organism-based
test_settings: in vivo
measurement_name: AUC(0-t) at 24 h

1) CC(=O)N1CCN(CCOc2cc(=O)oc3ccccc23)CC1 : 929 ng·h/mL
